Source: patent US12084522B2

target: HLA-A*02:01 (Homo sapiens, UniProt P04439, D140Y/D185E/D98H/E176V/E277Q/G131W/G231S/I119V/I121R/I166T/I218V/L300P/L318F/N151K/N90K/P208A/P217A/Q86G/Q94H/R138H/R169H/T345S); assay: MHC binding assay (UV-ligand exchange, β2m ELISA, peptide exchange yield); conditions: binding to HLA-A*02:01 ranged by peptide exchange yield (UV-ligand exchange, β2m ELISA)
Measurement name: Peptide exchange

[[record]]
substance = "7 (QMFEGQILDV; listed as Homo sapiens) [compound 7]"
result = "+++ (>50 = +++)"

[[record]]
substance = "30 (ILDISRSEV; listed as Homo sapiens) [compound 30]"
result = "+++ (>50 = +++)"

[[record]]
substance = "1 (ILLQASVQV; listed as Homo sapiens) [compound 1]"
result = "++++ (>75% = ++++)"

[[record]]
substance = "112 (YLDPSLNSL; listed as Homo sapiens) [compound 112]"
result = "+++ (>50 = +++)"

[[record]]
substance = "108 (YLDPNQRDL; listed as Homo sapiens) [compound 108]"
result = "+++ (>50 = +++)"

[[record]]
substance = "19 (SLATTLTKI; listed as Homo sapiens) [compound 19]"
result = "+++ (>50 = +++)"

[[record]]
substance = "36 (ALWDEFNQL; listed as Homo sapiens) [compound 36]"
result = "+++ (>50 = +++)"

[[record]]
substance = "91 (NLDAATYQV; listed as Homo sapiens) [compound 91]"
result = "+++ (>50 = +++)"

[[record]]
substance = "9 (SLVDARFQL; listed as Homo sapiens) [compound 9]"
result = "++++ (>75% = ++++)"

[[record]]
substance = "2 (GLLKAYSIRTA; listed as Homo sapiens) [compound 2]"
result = "+++ (>50 = +++)"

[[record]]
substance = "133 (GLDPLGYEIQL; listed as Homo sapiens) [compound 133]"
result = "++++ (>75% = ++++)"

[[record]]
substance = "14 (GLAGPVRGV; listed as Homo sapiens) [compound 14]"
result = "+++ (>50 = +++)"

[[record]]
substance = "129 (YLEPKLTQV; listed as Homo sapiens) [compound 129]"
result = "+++ (>50 = +++)"

[[record]]
substance = "102 (GLYEGLDWL; listed as Homo sapiens) [compound 102]"
result = "+++ (>50 = +++)"

[[record]]
substance = "32 (YQAPDIDVQL; listed as Homo sapiens) [compound 32]"
result = "+++ (>50 = +++)"

[[record]]
substance = "126 (SLLRVGWSV; listed as Homo sapiens) [compound 126]"
result = "++++ (>75% = ++++)"

[[record]]
substance = "127 (KLNATNIEL; listed as Homo sapiens) [compound 127]"
result = "+++ (>50 = +++)"

[[record]]
substance = "100 (SLQSFIHGV; listed as Homo sapiens) [compound 100]"
result = "+++ (>50 = +++)"

[[record]]
substance = "55 (KLLETKWTL; listed as Homo sapiens) [compound 55]"
result = "++++ (>75% = ++++)"

[[record]]
substance = "21 (TLIEDDALNGA; listed as Homo sapiens) [compound 21]"
result = "+++ (>50 = +++)"

[[record]]
substance = "141 (SMFGAGLTV; listed as Homo sapiens) [compound 141]"
result = "++++ (>75% = ++++)"

[[record]]
substance = "75 (RVISSVISV; listed as Homo sapiens) [compound 75]"
result = "+++ (>50 = +++)"

[[record]]
substance = "140 (ALLDGRVQL; listed as Homo sapiens) [compound 140]"
result = "++++ (>75% = ++++)"

[[record]]
substance = "58 (GLDSSVNVQGSVL; listed as Homo sapiens) [compound 58]"
result = "+++ (>50 = +++)"

[[record]]
substance = "147 (QMLELITRL; listed as Homo sapiens) [compound 147]"
result = "+++ (>50 = +++)"

[[record]]
substance = "105 (TLFPSKIGV; listed as Homo sapiens) [compound 105]"
result = "+++ (>50 = +++)"

